# ASSAY_SYSTEM: Neurotensin receptor type 1 (Homo sapiens)
# EXPERIMENTAL_DETAILS: Displacement of [125I]I-Tyr(3)NT from human NTR1
Starred links: 1 amine or outer side, 2 acyl side, 3 side chain; linkers in the order of their positions; H or OH if unused. Non-standard residues stand in square brackets, D forms with d. Residues, ends and D or L forms follow the SMILES beside them. *: point of attachment. NMeβ3hLys = CN([C@@H](CCCCN)CC(=O)[*:2])[*:1]; Tle = CC(C)(C)[C@H](N)C(=O)O; X3 = C[C@](N)(CCCCN)CC(=O)*; β3hK = NCCCC[C@H](N)CC(=O)O
READOUT_NAME: pKi
Please express pKi as -log10 of the molar concentration.

# count of solved cases: 3
* CC(C)C[C@H](NC(=O)[C@@H](NC(=O)[C@H](Cc1ccc(O)cc1)NC(=O)[C@@H]1CCCN1C(=O)[C@H](CCCNC(=N)N)NC(=O)C[C@@](C)(N)CCCCN)C(C)(C)C)C(=O)O (X3-RPY[Tle]L-OH) | 7.98
* CC[C@@H](C)[C@H](NC(=O)[C@H](Cc1ccc(O)cc1)NC(=O)[C@@H]1CCCN1C(=O)[C@H](CCCNC(=N)N)NC(=O)CCCCNC(=N)N)C(=O)N[C@@H](CC(C)C)C(=O)O | 8.70
* CN[C@@H](CCCCN)CC(=O)N[C@@H](CCCN=C(N)N)C(=O)N1CCC[C@H]1C(=O)N[C@@H](Cc1ccc(O)cc1)C(=O)N[C@H](C(=O)N[C@@H](CC(C)C)C(=O)O)C(C)(C)C (NMeβ3hLys-RPY[Tle]L-OH) | 7.69

Now look at this entry.
Item under review: CC(C)C[C@H](NC(=O)[C@@H](NC(=O)[C@H](Cc1ccc(O)cc1)NC(=O)[C@@H]1CCCN1C(=O)[C@H](CCCNC(=N)N)NC(=O)C[C@@H](N)CCCCN)C(C)(C)C)C(=O)O (H-[β3hK]RPY[Tle]L-OH) . Reported pKi?
8.09

* * *

# ASSAY_SYSTEM: Neurotensin receptor type 1 (Homo sapiens, UniProt P30989)
# Sequence (P30989 whole entry): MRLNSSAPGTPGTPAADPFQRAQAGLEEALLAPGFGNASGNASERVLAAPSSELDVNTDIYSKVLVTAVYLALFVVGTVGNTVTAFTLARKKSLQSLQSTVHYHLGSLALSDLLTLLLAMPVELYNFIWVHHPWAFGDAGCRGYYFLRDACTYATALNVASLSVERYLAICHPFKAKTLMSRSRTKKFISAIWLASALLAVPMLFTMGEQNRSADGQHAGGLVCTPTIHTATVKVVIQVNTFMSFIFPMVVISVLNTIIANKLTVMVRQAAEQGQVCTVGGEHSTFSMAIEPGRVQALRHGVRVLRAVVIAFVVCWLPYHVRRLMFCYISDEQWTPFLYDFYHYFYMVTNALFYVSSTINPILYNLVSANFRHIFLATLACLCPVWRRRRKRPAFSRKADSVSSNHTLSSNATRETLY
# EXPERIMENTAL_DETAILS: Agonist activity at NTR1 in human HT-29 cells assessed as increase in intracellular calcium concentration by FLIPR assay
pEC50: −log10 of the molar value. Starred links: 1 amine or outer side, 2 acyl side, 3 side chain; linkers in the order of their positions; H or OH if unused. Non-standard residues stand in square brackets, D forms with d. Residues, ends and D or L forms follow the SMILES beside them. *: point of attachment. NMeβ3hLys = CN([C@@H](CCCCN)CC(=O)[*:2])[*:1]; Pentanoyl(5-guanidino) = NC(N)=NCCCCC(=O)*; NMeR = CN[C@@H](CCCNC(=N)N)C(=O)O; αMeR = C[C@](N)(CCCNC(=N)N)C(=O)O; Tle = CC(C)(C)[C@H](N)C(=O)O; X3 = C[C@](N)(CCCCN)CC(=O)*; β3hK = NCCCC[C@H](N)CC(=O)O; Ahp = NCCCCCCC(=O)O
Where pEC50 equals or exceeds 7, the correct label is True; where it does not, the label is False.

Solved cases below.
- CC(C)C[C@H](NC(=O)[C@@H](NC(=O)[C@H](Cc1ccc(O)cc1)NC(=O)[C@@H]1CCCN1C(=O)[C@H](CCCNC(=N)N)NC(=O)CCCCCCN)C(C)(C)C)C(=O)O (H-[Ahp]RPY[Tle]L-OH): True
- CC(=O)N[C@@H](CCCCN)CC(=O)N[C@@H](CCCN=C(N)N)C(=O)N1CCC[C@H]1C(=O)N[C@@H](Cc1ccc(O)cc1)C(=O)N[C@H](C(=O)N[C@@H](CC(C)C)C(=O)O)C(C)(C)C (Ac-[β3hK]RPY[Tle]L-OH): True
- CN[C@@H](CCCNC(=N)N)C(=O)N[C@@H](CCCCN)C(=O)N1CCC[C@H]1C(=O)N[C@@H](Cc1c[nH]c2ccccc12)C(=O)N[C@H](C(=O)N[C@@H](CC(C)C)C(=O)O)C(C)(C)C (H-[NMeR]KPW[Tle]L-OH): False
- CC(C)C[C@H](NC(=O)[C@@H](NC(=O)[C@H](Cc1ccc(O)cc1)NC(=O)[C@@H]1CCCN1C(=O)[C@H](CCCNC(=N)N)NC(=O)C[C@@](C)(N)CCCCN)C(C)(C)C)C(=O)O (X3-RPY[Tle]L-OH): True
- CC(C)C[C@H](NC(=O)[C@@H](NC(=O)[C@H](Cc1c[nH]c2ccccc12)NC(=O)[C@@H]1CCCN1C(=O)[C@H](CCCCN)NC(=O)[C@@](C)(N)CCCNC(=N)N)C(C)(C)C)C(=O)O (H-[αMeR]KPW[Tle]L-OH): False

Check the entry CN[C@@H](CCCCN)CC(=O)N[C@@H](CCCN=C(N)N)C(=O)N1CCC[C@H]1C(=O)N[C@@H](Cc1ccc(O)cc1)C(=O)N[C@H](C(=O)N[C@@H](CC(C)C)C(=O)O)C(C)(C)C (NMeβ3hLys-RPY[Tle]L-OH) : does pEC50 equal or exceed 7?
True

Next record, please: "CC[C@@H](C)[C@H](NC(=O)[C@H](Cc1ccc(O)cc1)NC(=O)[C@@H]1CCCN1C(=O)[C@H](CCCNC(=N)N)NC(=O)CCCCNC(=N)N)C(=O)N[C@@H](CC(C)C)C(=O)O"
True

One more compound: CC(C)C[C@H](NC(=O)[C@@H](NC(=O)[C@H](Cc1c[nH]c2ccccc12)NC(=O)[C@@H]1CCCN1C(=O)[C@H](CCCCN)NC(=O)CCCCNC(=N)N)C(C)(C)C)C(=O)O ({Pentanoyl(5-guanidino)}-KPW[Tle]L-OH)
False

* * *

# Test system: Serum
# EXPERIMENTAL_DETAILS: Metabolic stability in human serum assessed as compound degradation rate at 1 mM by MALDI-TOF mass spectrometry assay
# Format: ADME, cell-free
# CONDITION_SUMMARY: 1000 µM
Non-standard residues stand in square brackets, D forms with d. Residues, ends and D or L forms follow the SMILES beside them. αMeR = C[C@](N)(CCCNC(=N)N)C(=O)O; Tle = CC(C)(C)[C@H](N)C(=O)O; β3hK = NCCCC[C@H](N)CC(=O)O
READOUT_NAME: Activity (µmol/min)
Report as a plain number; the unit µmol/min is understood.

Completed entries (count: 2):
* CC(C)C[C@H](NC(=O)[C@@H](NC(=O)[C@H](Cc1c[nH]c2ccccc12)NC(=O)[C@@H]1CCCN1C(=O)[C@H](CCCCN)NC(=O)[C@@](C)(N)CCCNC(=N)N)C(C)(C)C)C(=O)O (H-[αMeR]KPW[Tle]L-OH) | 0.064
* CC[C@@H](C)[C@H](NC(=O)[C@H](Cc1ccc(O)cc1)NC(=O)[C@@H]1CCCN1C(=O)[C@H](CCCNC(=N)N)NC(=O)[C@@](C)(N)CCCNC(=N)N)C(=O)N[C@@H](CC(C)C)C(=O)O | 0.444

Here is another molecule to look at.
Give the measured Activity of CC(=O)N[C@@H](CCCCN)CC(=O)N[C@@H](CCCN=C(N)N)C(=O)N1CCC[C@H]1C(=O)N[C@@H](Cc1ccc(O)cc1)C(=O)N[C@H](C(=O)N[C@@H](CC(C)C)C(=O)O)C(C)(C)C (Ac-[β3hK]RPY[Tle]L-OH) .
0.153

* * *

# ASSAY_SYSTEM: Neurotensin receptor type 1 (Homo sapiens)
# EXPERIMENTAL_DETAILS: Displacement of [125I]I-Tyr(3)NT from human NTR1
Non-standard residues stand in square brackets, D forms with d. Residues, ends and D or L forms follow the SMILES beside them. Tle = CC(C)(C)[C@H](N)C(=O)O
Entries and their pKi
The quantity pKi is defined as the negative base-10 logarithm of the molar concentration.

- CC(C)C[C@H](NC(=O)[C@@H](NC(=O)[C@H](Cc1c[nH]c2ccccc12)NC(=O)[C@@H]1CCCN1C(=O)[C@H](CCCCN)NC(=O)[C@@H](N)CCCN=C(N)N)C(C)(C)C)C(=O)O (H-RKPW[Tle]L-OH): 6.52

Attention now shifts to the item below.
Name the recorded pKi for CC(=O)N[C@@H](CCCNC(=N)N)C(=O)N[C@@H](CCCCN)C(=O)N1CCC[C@H]1C(=O)N[C@@H](Cc1c[nH]c2ccccc12)C(=O)N[C@H](C(=O)N[C@@H](CC(C)C)C(=O)O)C(C)(C)C (Ac-RKPW[Tle]L-OH) .
6.19

* * *

# EXPERIMENTAL_DETAILS: Metabolic stability in human serum assessed as half time of disappearance at 1 mM by MALDI-TOF mass spectrometry assay
# Assay type: ADME, cell-free
# CONDITION_SUMMARY: read-out: T50
Non-standard residues stand in square brackets, D forms with d. Residues, ends and D or L forms follow the SMILES beside them. *: point of attachment. X2 = [N-]=[N+]=N[C@@H](CCCCN)CC(=O)*; Tle = CC(C)(C)[C@H](N)C(=O)O
Below, each of the molecules is paired with its reported half-life at 1000 µM value.
Record the value in h, omitting the unit from your answer.

* CC(C)C[C@H](NC(=O)[C@@H](NC(=O)[C@H](Cc1ccc(O)cc1)NC(=O)[C@@H]1CCCN1C(=O)[C@H](CCCNC(=N)N)NC(=O)C[C@H](CCCCN)N=[N+]=[N-])C(C)(C)C)C(=O)O (X2-RPY[Tle]L-OH) | 62.7

Note: attention shifts to another entry.
Look up half-life at 1000 µM: CC(=O)N[C@@H](CCCNC(=N)N)C(=O)N[C@@H](CCCCN)C(=O)N1CCC[C@H]1C(=O)N[C@@H](Cc1c[nH]c2ccccc12)C(=O)N[C@H](C(=O)N[C@@H](CC(C)C)C(=O)O)C(C)(C)C (Ac-RKPW[Tle]L-OH)
124
